From: ChEMBL document CHEMBL1201862

System: UO-31
procedureDetails: NCI tumour cell line growth inhibition, 48 h
Activity calls are given as the source filed them. No stated cut-off is given here; in the data, active = GI50 up to about 1.1 µM and inactive = higher.

>  <compound>
O=C1CCCC2=C1CC1=C(CCCC1=O)N2c1ccccc1C(=O)O

>  <systemTested>
UO-31

>  <GI50>
> 100 µM (inactive)

$$$$
>  <compound>
CC(O)C(O)C(O)C(/C=N\Nc1ccccc1)=N/Nc1ccccc1 (stereo not given)

>  <systemTested>
UO-31

>  <GI50>
12.2 µM (inactive)

$$$$
>  <compound>
CCOC(=O)C(NC(=O)CC)(Nc1ccc(S(=O)(=O)Nc2nc(C)cc(C)n2)cc1)C(F)(F)F (stereo not given)

>  <systemTested>
UO-31

>  <GI50>
> 100 µM (inactive)

$$$$
>  <compound>
CC(C)c1cc(Cl)nc(Cl)n1

>  <systemTested>
UO-31

>  <GI50>
> 100 µM (inactive)

$$$$
>  <compound>
Cc1ccc(N2CCN(CCC(=O)O)CC2)cc1

>  <systemTested>
UO-31

>  <GI50>
> 100 µM (inactive)

$$$$
>  <compound>
Cc1ccc2c(ccc(/C=C\c3cc(C)c4cccnc4c3O)[n+]2C)c1

>  <systemTested>
UO-31

>  <GI50>
15.7 µM (inactive)

$$$$
>  <compound>
COc1cccc(/N=N/C(=N\NC(=O)c2ccc(C)cc2)c2ccc(N(CCC#N)CCC#N)cc2C)c1

>  <systemTested>
UO-31

>  <GI50>
59.8 µM (inactive)

$$$$
>  <compound>
Cc1ccc(C2NC(=N)NC3=C2CCOc2c3ccc3ccccc23)cc1 (stereo not given)

>  <systemTested>
UO-31

>  <GI50>
42.9 µM (inactive)

$$$$
>  <compound>
CCCCNS(=O)(=O)c1n[nH]c(=O)[nH]c1=O

>  <systemTested>
UO-31

>  <GI50>
> 100 µM (inactive)

$$$$
>  <compound>
CCCC(Sc1nc(N)nc2nc[nH]c12)C(=O)O (stereo not given)

>  <systemTested>
UO-31

>  <GI50>
65.2 µM (inactive)

$$$$
>  <compound>
O=C(O)CCC(NC(=O)c1ccc(Nc2nc3ccccc3nc2C(=O)O)cc1)C(=O)O (stereo not given)

>  <systemTested>
UO-31

>  <GI50>
> 100 µM (inactive)

$$$$
>  <compound>
O=c1c(-c2ccccc2Cl)coc2cc(F)ccc12

>  <systemTested>
UO-31

>  <GI50>
20.4 µM (inactive)

$$$$
>  <compound>
c1ccc2c(c1)OC(N1CCCC1)c1cnc(N3CCCC3)nc1-2 (stereo not given)

>  <systemTested>
UO-31

>  <GI50>
24.3 µM (inactive)

$$$$
>  <compound>
Cc1ccc(Cc2n[nH]c(=O)n2Nc2ccccc2)cc1

>  <systemTested>
UO-31

>  <GI50>
68.2 µM (inactive)

$$$$
>  <compound>
CCOP(=O)(OCC)c1ccc(=O)[nH]c1-c1cccs1

>  <systemTested>
UO-31

>  <GI50>
> 100 µM (inactive)

$$$$
>  <compound>
CCCCS(=N)(=O)CC[C@H](N)C(=O)O (stereo not given in full)

>  <systemTested>
UO-31

>  <GI50>
2480 µM (inactive)

$$$$
>  <compound>
c1ccc2c(c1)N=C(c1cccc3ccccc13)CC(c1cccc3ccccc13)S2 (stereo not given)

>  <systemTested>
UO-31

>  <GI50>
11.2 µM (inactive)

$$$$
>  <compound>
CCOC(=O)C1C(c2ccccc2)C2(C#N)C(=N)OC1(C)C2(C#N)C#N (stereo not given)

>  <systemTested>
UO-31

>  <GI50>
16.2 µM (inactive)

$$$$
>  <compound>
C[n+]1c2ccccc2c(NC(CS)C(=O)O)c2ccccc21 (stereo not given)

>  <systemTested>
UO-31

>  <GI50>
16.2 µM (inactive)

$$$$
>  <compound>
CC(=O)N1N=C(c2ccc3ccccc3c2O)CC1C(=O)c1ccco1 (stereo not given)

>  <systemTested>
UO-31

>  <GI50>
23.1 µM (inactive)

$$$$
>  <compound>
CCCCCCCC(CC(=O)NC(CO)C(=O)NC(CO)CC(C)C)OC(=O)CC(CCCCCCC)OC(=O)CC(CCCCCCC)OC1OC(C)C(O)C(OC2OC(C)C(O)C(OC(C)=O)C2O)C1O (stereo not given)

>  <systemTested>
UO-31

>  <GI50>
14.9 µM (inactive)

$$$$
>  <compound>
O=C(c1cccc2ccccc12)N1CCC(C2CCN(C(=O)c3cccc4ccccc34)CC2)CC1

>  <systemTested>
UO-31

>  <GI50>
> 100 µM (inactive)

$$$$
>  <compound>
C=C1CN2CC(=C)CN(C1)CS(=O)(=O)N1CC(=C)CN(CC(=C)C1)S(=O)(=O)N1CC(=C)CN(CC(=C)C1)S(=O)(=O)C2

>  <systemTested>
UO-31

>  <GI50>
42 µM (inactive)

$$$$
>  <compound>
Cc1ccc(C2COc3cc(O)c(O)cc3C2)cc1 (stereo not given)

>  <systemTested>
UO-31

>  <GI50>
30 µM (inactive)

$$$$
>  <compound>
COc1ccc2c(c1)Oc1cc(O)ccc1[C@@H]2c1ccccc1C(=O)NC(C)c1ccccc1 (stereo not given in full)

>  <systemTested>
UO-31

>  <GI50>
13.5 µM (inactive)

$$$$
>  <compound>
OCC(O)C1OC2CC1Nc1ccccc1N2 (stereo not given)

>  <systemTested>
UO-31

>  <GI50>
> 100 µM (inactive)

$$$$
>  <compound>
O=C1CC[C@@H](S(=O)(=O)c2ccccc2)[C@@H](/C=C/c2ccccc2)O1

>  <systemTested>
UO-31

>  <GI50>
> 100 µM (inactive)

$$$$
>  <compound>
O=c1[nH]nc(Cc2ccccc2)n1/N=C/c1ccccc1O

>  <systemTested>
UO-31

>  <GI50>
> 100 µM (inactive)

$$$$
>  <compound>
CC1=C(OC2OC(CO)C(O)C(O)C2O)C(=O)C[C@H]2C1=CC[C@@H]1[C@@]2(C)C(=O)C[C@]2(C)[C@@H]([C@@](C)(O)C(=O)CCC(C)(C)O)[C@H](O)C[C@@]12C (stereo not given in full)

>  <systemTested>
UO-31

>  <GI50>
> 100 µM (inactive)

$$$$
>  <compound>
Cn1c(=O)c2c3ccccc3n(C)c2n(C)c1=O

>  <systemTested>
UO-31

>  <GI50>
> 100 µM (inactive)

$$$$
>  <compound>
Cc1cc(C#N)c[n+](C)c1

>  <systemTested>
UO-31

>  <GI50>
> 100 µM (inactive)

$$$$
>  <compound>
COP(=O)(OC)C(NC(=O)C(F)(F)F)(c1ccccc1)C(F)(F)F (stereo not given)

>  <systemTested>
UO-31

>  <GI50>
> 100 µM (inactive)

$$$$
>  <compound>
CC(O)C1(O)C(O)CC(OC2c3cc4c(c(O)c3[C@@H]3C[C@@]2(C)OC32C=c3cc[nH]c3=N2)C(=O)c2cccc(O)c2C4=O)OC1C (stereo not given in full)

>  <systemTested>
UO-31

>  <GI50>
1.77 µM (inactive)

$$$$
>  <compound>
COc1cc(/C=C/C2=NN(c3cccc(S(=O)(=O)O)c3)C3(C2)SCC(=O)N3c2nc3ccccc3s2)cc(OC)c1OC (stereo not given)

>  <systemTested>
UO-31

>  <GI50>
36.1 µM (inactive)

$$$$
>  <compound>
COC(=O)CC(=O)OC

>  <systemTested>
UO-31

>  <GI50>
> 100 µM (inactive)

$$$$
>  <compound>
CCOC(=O)C(C)c1nc2cc(N3CCOCC3)c(F)cc2[nH]c1=O (stereo not given)

>  <systemTested>
UO-31

>  <GI50>
> 100 µM (inactive)

$$$$
>  <compound>
COc1cc(C(c2cc3c(cc2O)OCO3)N2CCCCC2)cc(OC)c1OC (stereo not given)

>  <systemTested>
UO-31

>  <GI50>
14.8 µM (inactive)

$$$$
>  <compound>
CCc1cccc(NC(=O)c2cc(/C=C/c3ccccc3)nc(S)n2)c1

>  <systemTested>
UO-31

>  <GI50>
> 100 µM (inactive)

$$$$
>  <compound>
N#CC1=C2Sc3ccccc3N2[C@H](c2ccccc2)[C@H]2COC(=O)[C@@H]12

>  <systemTested>
UO-31

>  <GI50>
> 100 µM (inactive)

$$$$
>  <compound>
CC1(C)C(=O)/C=C\C(=O)C(C)(C)C(=O)/C=C\C(=O)C(C)(C)C2=CC=C(O2)C(C)(C)C(=O)/C=C\C1=O

>  <systemTested>
UO-31

>  <GI50>
14.5 µM (inactive)

$$$$
